molecular target: Nrf2-Keap1 complex (Homo sapiens, UniProt Q14145); test: cell-based; assay type: cell-based
Sequence (Q14145 whole entry, one chain of several): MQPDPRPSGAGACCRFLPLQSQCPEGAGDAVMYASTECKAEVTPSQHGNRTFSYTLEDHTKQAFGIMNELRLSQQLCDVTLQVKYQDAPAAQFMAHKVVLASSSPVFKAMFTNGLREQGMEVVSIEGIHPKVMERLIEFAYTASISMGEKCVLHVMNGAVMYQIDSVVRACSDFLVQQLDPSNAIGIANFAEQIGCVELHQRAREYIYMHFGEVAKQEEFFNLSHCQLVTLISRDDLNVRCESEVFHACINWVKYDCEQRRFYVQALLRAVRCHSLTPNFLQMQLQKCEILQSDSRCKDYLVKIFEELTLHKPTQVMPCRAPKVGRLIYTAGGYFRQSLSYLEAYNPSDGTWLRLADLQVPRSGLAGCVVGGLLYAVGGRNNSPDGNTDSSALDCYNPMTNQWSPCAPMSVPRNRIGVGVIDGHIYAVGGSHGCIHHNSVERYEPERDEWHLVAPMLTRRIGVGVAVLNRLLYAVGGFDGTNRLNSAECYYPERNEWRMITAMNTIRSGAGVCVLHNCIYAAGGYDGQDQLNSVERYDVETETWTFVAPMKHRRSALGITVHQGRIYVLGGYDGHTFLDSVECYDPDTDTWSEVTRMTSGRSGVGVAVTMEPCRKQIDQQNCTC
measured_quantity: 200 nL (luminescence)
Hey, just send me the number, nothing else.

| molecule | 200 nL (luminescence) |
| --- | --- |
| C#C[C@]1(O)CC[C@H]2[C@@H]3CCC4=C(CCC(=O)C4)[C@H]3CC[C@@]21C [NORETHYNODREL, reference compound] | 3920 |
| COc1cc2c(c(OC)c1OC)-c1ccc(OC)c(=O)cc1[C@@H](NC(C)=O)CC2 [COLCHICINE, reference compound] | 840 |
| O=S(=O)(O)CCS [MESNA, reference compound] | 612 |
| CCCSc1ccc2nc(NC(=O)OC)[nH]c2c1 [ALBENDAZOLE, reference compound] | 5292 |

Q) What value of measured 200 nL (luminescence) is listed for C=C1CC[C@@H]2[C@](C)(CO)[C@H](O)CC[C@@]2(C)[C@@H]1C/C=C1/C(=O)OC[C@H]1O [ANDROGRAPHOLIDE] ?
A) 708

Q) Likewise for C=C(C)[C@@H]1CC=C(CO)CC1 ?
A) 736

Q) Same lookup for O=C(NC(=O)c1c(F)cccc1F)Nc1cc(Cl)c(OC(F)(F)C(F)C(F)(F)F)cc1Cl (stereo not shown) , please.
A) 1022

Q) Would you kindly repeat that for CNC(=O)Oc1cccc2c1OC(C)(C)O2 ?
A) 2760

Q) Entry to check: CC(=O)N1CCN(c2ccc(OCC3CO[C@](Cn4ccnc4)(c4ccc(Cl)cc4Cl)O3)cc2)CC1 (stereo partly shown) [KETOCONAZOLE, reference compound]
A) 1026

Q) Again, but for CC1CCc2cc(F)cc3c(=O)c(C(=O)O)cn1c23 (stereo not shown) [FLUMEQUINE, reference compound]
A) 368

Q) Would you mind doing NCCc1ccc(O)c(O)c1 [3-HYDROXYTYRAMINE] as well?
A) 1704

Q) Let us now turn to O=C(O)c1cc(O)c2c(c1)[C@@H]([C@H]1c3cc(C(=O)O)cc(O)c3C(=O)c3c(O[C@H]4O[C@H](CO)[C@@H](O)[C@H](O)[C@H]4O)cccc31)c1cccc(O[C@H]3O[C@H](CO)[C@@H](O)[C@H](O)[C@H]3O)c1C2=O [SENNOSIDEA, reference compound]
A) 4

Q) // repeat for COC(=O)/C=C/C(C)=C\C=C\C(C)=C\C=C\C=C(C)\C=C\C=C(C)\C=C\C(=O)O and report
A) 3036

Q) Cool, now CC(=O)Nc1ccc(O)cc1 [ACETAMINOPHEN, reference compound]
A) 1012

Q) Could you do the same for O=C(CCBr)N1CCN(C(=O)CCBr)CC1 [PIPOBROMAN, reference compound] , please?
A) 3732

* * *

biological target: Nrf2-Keap1 complex (Homo sapiens, UniProt Q14145); assay: cell-based; assay type: cell-based; conditions: 3 h, read-out: Activation 200 nL
measured_quantity: activation at 32 µM (%)
Quick reminder: number only, in %, skip the unit.

| compound | activation at 32 µM, % |
| --- | --- |
| CCC(C)C(=O)OC1[C@@H]2CC3=C4CC(=O)O[C@@H](c5ccoc5)[C@]4(C)CCC3[C@@](C)(C2=O)[C@@H](CC(=O)OC)C1(C)C (stereo partly drawn) | 105 |
| COc1cc(O)c(C(=O)/C=C/c2ccc(OC)c(O)c2)c(OC)c1 | 10 |
| COc1cc2c(c(OC)c1OC)-c1ccc(=O)c(O)cc1[C@@H](NC(C)=O)CC2 | 11 |
| O=C(/C=C/c1ccc(O)cc1)c1ccccc1O [2′,4-DIHYDROXYCHALCONE] | -9 |
| CCc1cccc(CC)c1N(COC)C(=O)CCl | 194 |
| O=C(/C=C/c1ccc(O)cc1)c1ccc(O)cc1O | 134 |
| COc1ccc2c(c1)OC/C(=C\c1ccc(OC)c(O)c1)C2=O | 110 |
| NC(=O)c1ccc(N)nc1 [6-AMINONICOTINAMIDE] | 1 |

Q) Field: activation at 32 µM (Nrf2-Keap1 complex (Homo sapiens, UniProt Q14145)). Entry: COc1ccc(-c2coc3cc(O)ccc3c2=O)c(O)c1O
A) 11

* * *

molecular target: Nrf2-Keap1 complex (Homo sapiens); assay: cell-based; format: cell-based; details: Table 1A; 200 nL compound; screen run at 16 and 32 μM, 3 hr
// 0 strictly below 800 in 200 nL (luminescence); 1 otherwise

| compound | measured_target | assigned_category |
| --- | --- | --- |
| Nc1nc(N)c2nc(-c3ccccc3)c(N)nc2n1 [reference compound] | Nrf2-Keap1 complex (Homo sapiens) | 1 |
| COc1ccc2c(c1)[C@@]1(C)CCC(=O)C[C@H]1CC2 | Nrf2-Keap1 complex (Homo sapiens) | 0 |
| Oc1ccc2c(c1)OCC1c3cc4c(cc3OC21)OCO4 (stereo not shown) [MAACKIAIN] | Nrf2-Keap1 complex (Homo sapiens) | 1 |
| COC(=O)Nc1nc2ccc(Sc3ccccc3)cc2[nH]1 [FENBENDAZOLE, reference compound] | Nrf2-Keap1 complex (Homo sapiens) | 0 |

Q) Is the recorded value of 200 nL (luminescence) equal to or greater than 800 for this compound? NC(=O)c1ccc[n+]([C@@H]2O[C@H](COP(=O)([O-])OP(=O)(O)OC[C@H]3O[C@@H](n4cnc5c(N)ncnc54)[C@H](O)[C@@H]3O)[C@@H](O)[C@H]2O)c1 [NADIDE, reference compound]
A) 0

Q) Let us now turn to COc1cc([C@@H]2c3cc4c(c(O)c3C[C@H]3COC(=O)[C@@H]32)OCO4)cc(OC)c1OC [beta-PELTATIN]
A) 1

Q) What about this compound? COc1ccnc(C[S+]([O-])c2nc3cc(OC(F)F)ccc3[nH]2)c1OC (stereo not shown) [PANTOPRAZOLE, reference compound]
A) 1

* * *

The following compounds are shown together with reported 100 nL (luminescence) values.
molecular target: Nrf2-Keap1 complex (Homo sapiens, UniProt Q14145); assay: cell-based; assay type: cell-based; details: Table 2; 100 nL compound; screen run at 16 and 32 μM, 3 hr
Structures can show the parent of a compound that is named as a salt.
# output: bare number, no unit

Example results:
| compound | 100 nL (luminescence) |
| --- | --- |
| COc1ccc2c(c1)OCc1c-2oc2cc(OC)ccc12 [DEHYDROVARIABILIN] | 1672 |
| CCOc1ccc(C(=O)c2ccc(OC)c(O)c2O)cc1 | 2142 |
| O=c1oc2cc(O)ccc2s1 [TIOXOLONE, reference compound] | 3542 |
| CCCCC(CC)CNC(=N)NC(=N)NCCCCCCNC(=N)NC(=N)NCC(CC)CCCC (stereo not shown) [ALEXIDINEHYDROCHLORIDE] | 1900 |
| [H]/N=C(\N/C(=N/[H])NCCCCCCNC(=N)NC(=N)Nc1ccc(Cl)cc1)Nc1ccc(Cl)cc1 [CHLORHEXIDINE, reference compound] | 2188 |

Q) Could you share which 100 nL (luminescence) value was measured for CN1CCN(CC/C=C2/c3ccccc3Sc3ccc(S(=O)(=O)N(C)C)cc32)CC1 [THIOTHIXENE, reference compound] ?
A) 1500

Q) Would you kindly repeat that for O=C(CC[N+](=O)[O-])OC[C@H]1O[C@@H](O)[C@H](OC(=O)CC[N+](=O)[O-])[C@@H](OC(=O)CC[N+](=O)[O-])[C@@H]1OC(=O)CC[N+](=O)[O-] [[…]] ?
A) 1020

* * *

molecular target: Nrf2-Keap1 complex (Homo sapiens); assay: cell-based; assay type: cell-based; details: Table 2; 100 nL compound; screen run at 16 and 32 μM, 3 hr
Use Met when the recorded 100 nL (luminescence) is no lower than 2000; use Not met when it is lower.

| compound | assigned_category |
| --- | --- |
| COc1ccc(/C=C/C(=O)c2ccc(O)cc2O)cc1OC [2′,4′-DIHYDROXY-3,4-DIMETHOXYCHALCONE] | Met |
| COc1ccc(-c2coc3cc(O)ccc3c2=O)c(O)c1O [KOPARIN] | Met |
| COc1cc(O)c(C(=O)/C=C/c2ccc(O)c(OC)c2)c(OC)c1 | Met |
| Cc1cccc2c3c(ccc12)C1=C(C(=O)C3=O)[C@@H](C)CO1 [DIHYDROTANSHINONEI] | Met |
| COC1=CC(=O)C[C@@H](C)[C@]12Oc1c(Cl)c(OC)cc(OC)c1C2=O [GRISEOFULVIN, reference compound] | Not met |

Q) Kindly determine if 100 nL (luminescence) recorded for O=C1C(O)=C(O)C(=O)C(O)=C1O [TETROQUINONE] is above or exactly 2000.
A) Not met

Q) Lookup CCOCN(C(=O)CCl)c1c(C)cccc1CC [ACETOCHLOR]
A) Not met

Q) Same thing, different compound: COC(=O)[C@H]1[C@H]2C[C@@H]3c4[nH]c5cc(OC)ccc5c4CCN3C[C@H]2C[C@@H](OC(=O)c2cc(OC)c(OC)c(OC)c2)[C@@H]1OC [RESERPINE, reference compound]
A) Not met

Q) Note, next up: COc1cc(C)c2c(c1C=O)Oc1c(c(C)c(O)c3c1C(O)OC3=O)OC2=O (stereo not shown) [[…]]
A) Not met

Q) Entry COc1cc(O)cc(OC)c1OC [ANTIAROL] please
A) Not met

Where do the numbers come from? From patent US9200046B2.
